Tested on: LXRb:RXRa (NR concentration 270 nM, RXRa partner concentration 90 nM)
Assay: PBM binding z-score (relative to random genomic background probes); higher = stronger binding; sequences stand for … in GC…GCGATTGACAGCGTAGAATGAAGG
EXPERIMENTAL_ENDPOINT: PBM binding z-score
Write the value as a bare number.

Enquiry: Form field: reported PBM binding z-score of "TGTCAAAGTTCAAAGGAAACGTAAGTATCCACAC"
Return: 3.56

Enquiry: What do you have for "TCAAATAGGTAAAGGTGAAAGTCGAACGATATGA" ?
Return: 1.72

Enquiry: Can you handle "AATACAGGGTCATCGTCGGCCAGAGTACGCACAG" next?
Return: 4.83

Enquiry: Input "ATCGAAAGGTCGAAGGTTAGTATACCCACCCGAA"
Return: 3.05

Enquiry: Now consider "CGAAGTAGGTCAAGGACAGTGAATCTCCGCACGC" and answer again.
Return: 1.82

Enquiry: Then "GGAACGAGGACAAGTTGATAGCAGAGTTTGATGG" ?
Return: -0.534

// data source = the supplement of paper PMC6555819
